System: NCI-H322M lung
Experiment: NCI-60 one-dose screen, 48 h (100 = growth as untreated, 0 = no growth, -100 = all killed)
Conditions: 10 µM
The panel holds about 83,000 compounds, 20% with a hit somewhere; the sample as a whole holds those more often.
ENDPOINT: growth (%)
Express it in %; write the number only.

Example entries begin here.
CN1CCc2c(sc3ncnc(N/N=C/c4cn(-c5ccccc5)nc4-c4ccc(Cl)cc4)c23)C1
28.7
COc1cccc(-c2nn(-c3ccccc3)cc2-c2ccnc(NCCCNC(=O)Nc3ccc(F)cc3)c2)c1
43.7
O=C(CSc1nnc(-c2c[nH]c3ccccc23)n1-c1ccccc1)Nc1ccc(C(=O)/C=C/c2ccccc2Cl)cc1
97.3
Cc1ccc(C(=O)N/C(=C2/OCCN2C)[P+](c2ccccc2)(c2ccccc2)c2ccccc2)cc1
100
CN1CCCN(Cc2ccc(C(=O)Nc3cccc(Nc4ccc5c(O)cccc5n4)c3)cc2C(F)(F)F)CC1
-72.1

Please give the measured growth for this compound: CC(C)(C)Nc1nc2cc(Cl)c(Cl)cc2nc1S(C)(=O)=O 98

// query: C/C(=C\c1ccc(O)cc1O)c1ccc2ccc(O)cc2[o+]1 78.1

// query: O=C(c1ccc(O)cc1)C1[C@H](c2ccccc2Br)[C@@H](c2ccccc2)NC12C(=O)Nc1ccc(Cl)cc12 (stereo partly drawn) 27

// query: Cc1ccc(C(=O)NNC(=O)CSc2nc3ccccc3c(=O)[nH]2)cc1 99.2

// query: COc1ccc(-c2c(N)c(=O)n(C)c3ccccc23)cc1 77

// query: O=C(CNc1nc(-c2ccccc2)cs1)Nc1cccc([N+](=O)[O-])c1 -71.4

// query: C#Cc1ccc(S(=O)(=O)Nc2cccc(-c3csc(NC(C)=O)n3)c2)cc1 98.9

// query: Cc1ccn2c(C(=O)c3ccc(Br)cc3)cc(-c3cc(-c4ccc(N(C)C)cc4)c(C#N)c(N)n3)c2c1 41

// query: COc1cc(/C=C/C(=O)c2ccc(NC(=O)CSc3nnc(-c4c[nH]c5ccccc45)n3-c3ccccc3)cc2)cc(OC)c1OC 90.5

// query: O=C(Nc1cccc(C(F)(F)F)c1)c1cncc(C#Cc2cnc3cccnn23)c1 71.6

---

System: LOX IMVI melanoma
Test: NCI-60 one-dose screen, 48 h (100 = growth as untreated, 0 = no growth, -100 = all killed)
Settings: 10 µM
Method: Growth inhibition of the LOX IMVI human tumor cell line is measured as a screen for anti-cancer activity. Cells are grown in 96 well plates and exposed to the test compound for 48 hours. Compounds are tested at a single concentration, which is 10^-5 M for most compounds. The reported endpoint is percent growth (GI% or GIPRCNT), where numbers from 0 - 100% represent growth inhibition, and numbers from -100% - 0 represent cell death. For example, a value of 40 represents 60% growth inhibition. […]
This is part of a sample that, as a whole, favours compounds with a hit. Of some 83,000 tested, about 20% had one in any assay. Active and inactive are the calls of the source. The calls were made as follows: active = growth percent below 10; inactive = the rest.
ENDPOINT: growth

O=C1Nc2ccc(F)cc2/C1=C/c1cccc(OCc2ccccc2)c1
-79.5% (active)

Please give the measured growth for this molecule: COc1ccc(N2N=C(c3ccc4c(c3)OCCO4)CC2c2cccc(NC(=O)CCCNS(=O)(=O)c3ccc(F)cc3)c2)cc1 (centres undefined) 72.5% (inactive)

// query: CN1CCN(c2ccc(Nc3nc(NCCNC(=O)c4ccc(C(F)(F)F)cc4)c4sccc4n3)cc2)CC1 -93.9% (active)

// query: Cc1ccc(C(C)C)cc1NC(=O)c1ccccc1N(C)C 86.8% (inactive)

// query: COc1ccc(-c2cc(C(=O)N=Nc3c(O)[nH]c4ccccc34)c3ccccc3n2)cc1 -73.6% (active)

// query: O=C(NCCCCCCCCCC[P+](c1ccccc1)(c1ccccc1)c1ccccc1)c1ccc(-n2nc(-c3ccccc3O)nc2-c2ccccc2O)cc1 -96.9% (active)

// query: Cc1ccc(CSc2nc(-c3ccc(F)cc3)c(C#N)c(=O)[nH]2)cc1 95.6% (inactive)

// query: COC1=C[C@@]23CCC(=O)N2CCc2cc4c(cc2[C@H]3[C@H]1OC(=O)C(C)(C)O)OCO4 96.6% (inactive)

// query: COc1cccc(-c2nn(-c3ccccc3)cc2-c2ccnc(NCCCNC(=O)Nc3ccc(F)cc3)c2)c1 3.45% (active)

// query: CO[C@@H]1CSSC1Cn1nc(-c2ccc(Oc3ccccc3)cc2)c2c(N)ncnc21 (some centres undefined) 39.4% (inactive)

// query: COc1csc(/C=N/NC(=O)c2[nH]c3ccc(Br)cc3c2-c2ccccc2)c1 12.6% (inactive)

// query: O=c1[nH]c2ccccc2cc1CSc1ccc(Nc2nccc(-c3ccc4ccccc4c3)n2)cc1 3.77% (active)

// query: C=C[C@H]1[C@H](O[C@@H]2OC(CO)[C@@H](O)[C@H](O)C2OC(=O)c2c(O)cc(O)cc2-c2cccc(O)c2)OC=C2C(=O)OCC[C@H]21 (some centres undefined) 99.3% (inactive)

// query: COc1ccc(C(C)=C(c2ccc(OCCCN(C)C)cc2)c2ccc(OCCCN(C)C)cc2)cc1 -92.5% (active)

// query: O=S(=O)(Nc1ncccn1)c1ccc(-n2c(-c3ccccc3)nc(-c3ccccc3)c2-c2ccccc2)cc1 85.7% (inactive)

// query: CC(C)C1=C[C@@]23CC[C@@H]4[C@](C)(CCC[C@]4(C)C(=O)NCc4ccccc4)[C@H]2C[C@@H]1[C@H]1C(=O)CCC(=O)[C@H]13 27% (inactive)

---

System: KM12 colon
Assay: NCI-60 one-dose screen, 48 h
Settings: 10 µM
About 83,000 compounds went through this panel and 20% of them were active in at least one assay; those are over-represented in the sample as a whole. The source made the active and inactive calls. Rule for the calls: active = growth percent below 10; inactive = the rest.
One label from this list, please: active, inactive

Examples from the recorded data:
Nc1nc2c(F)c(F)c(F)c(F)c2s1
inactive
COc1ccc(OC)c(/C=N/NC(=O)c2ccc3nc(-c4ccc(Cl)cc4)[nH]c3c2)c1
inactive
Nc1nc(Nc2ccc(Cl)cc2)nn1Cc1cccc(Br)c1
inactive
CN1CCN(c2ccc(C(=O)/C=C/c3ccc(C#N)cc3)cc2)CC1
inactive
CCOC(=O)C1=C(N)N(c2ccc(C)cc2)C2=C(C(=O)CC(C)(C)C2)C1c1ccccc1OC (configuration not stated)
inactive
O=C1Nc2ccc(Cl)cc2/C1=C/c1ccc(OCc2ccccn2)cc1
inactive
O=C(c1ccc(Cl)cc1)C1[C@H](c2ccccc2Br)[C@@H](c2ccccc2)NC12C(=O)Nc1ccccc12 (some centres not stated)
inactive
O=C(c1ccccc1)n1ccc(-c2cc3cc(Br)ccc3oc2=O)n1
inactive
CC1(c2ccccc2)NC(=O)N(CC(=O)Nc2ccc(C(=O)/C=C/c3ccc(Br)cc3)cc2)C1=O (configuration not stated)
active
O=c1oc2ccc(-c3ccc(F)cc3F)cc2c(=O)n1-c1ccc(F)cc1
active

What is the recorded call for this compound in the test? COc1cc2c3c(n(CCCNC(C)C)c(=O)c2cc1OC)-c1nc2c(cc1C3=O)OCO2 active

// query: CN1CCc2c(sc3ncnc(N/N=C/c4cn(-c5ccccc5)nc4-c4ccc(Cl)cc4)c23)C1 inactive

// query: CN1C(=O)N(C)C2SC(N/N=C/c3ccc(F)cc3)=NC21 (configuration not stated) inactive

// query: COc1cc(NC(=O)CSc2nnc(-c3ccc4nc(-c5ccc(Cl)cc5)[nH]c4c3)o2)cc(OC)c1OC inactive

// query: OCc1[nH]nc2cc(Nc3ncc4ccc(Br)c(OC5CCC(O)CC5)c4n3)ccc12 (configuration not stated) active

// query: COc1ccc(C(=O)Nc2sc3c(c2C#N)CCC(=O)C3)cc1C(F)(F)F inactive

// query: O=c1c2ccccc2nc(COc2ccccc2)n1/N=C/c1ccc(F)cc1 inactive

// query: CC1=C(C(=O)OC(C)C)C(c2ccc(O)cc2)NC(=S)N1 (configuration not stated) inactive

// query: C/C(=C\CC/C=C(\C)CC/C=C(\C)CC[C@@H](O)C(C)(C)O)CC/C=C(\C)CC[C@@H](O)C(C)(C)O inactive

// query: O=C(Nc1nc2ccc([N+](=O)[O-])cc2s1)Nc1cc(Cl)ccc1I active

// query: CN1C(=O)N(C)C2SC(N/N=C/c3cccs3)=NC21 (configuration not stated) inactive

// query: O=S(=O)(c1ccc(Cl)cc1)c1nc(-c2ccccc2)oc1S(=O)(=O)c1ccc(Cl)cc1 inactive

// query: COc1cc2oc(-c3cccc(C(=O)Nc4ccc(Cl)cc4)c3)cc(=O)c2c(OCCNC(=O)CNC(=O)OC(C)(C)C)c1OC inactive

// query: CNC(=O)c1cccc(N2CCc3c2ccc(NC(=O)Nc2ccc(N4CCN(C)CC4)c(C(F)(F)F)c2)c3F)c1 active

// query: CN1CCN(Cc2ccc(C(=O)Nc3cccc(Nc4ccc5cc(O)ccc5n4)c3)cc2C(F)(F)F)CC1 active

// query: COC[C@@H](CC(C)C)N=C1NC(=O)/C(=C/c2ccc3ncsc3c2)N1 inactive

// query: COC(=O)c1c(C(=O)OC)c2n(c1C)[C@@H]([C@@H](C)[C@H]1CC[C@H]3[C@@H]4CCC5=CC(=O)CC[C@]5(C)[C@H]4CC[C@]13C)SC2 inactive

// query: CN1CCN(c2ccc(Nc3nc(N4CCN(S(=O)(=O)c5ccc(Cl)cc5)CC4)c4sccc4n3)cc2)CC1 active

// query: COc1cc2c(c(OC)c1OC)C(=O)CC(c1cccc(NC(=O)c3cccc(N)c3)c1)O2 (configuration not stated) inactive

// query: O=C(CS(=O)(=O)c1oc(-c2ccc(Cl)cc2)nc1S(=O)(=O)c1ccccc1)N1CCCC1 inactive

// query: CC[C@]12C=CCN3CC[C@@]4(c5cc(C#CCNc6ccc(C)c(Nc7nccc(-c8cccnc8)n7)c6)c(OC)cc5N(C)[C@H]4[C@@](O)(C(=O)OC)[C@@H]1OC(C)=O)C32 (some centres not stated) inactive

// query: O=C1NC(=NC2CCCCCC2)N/C1=C\c1ccc2ncoc2c1 inactive

// query: NS(=O)(=O)c1ccc(N=Nc2c(O)n(CC(=O)Nc3ccccc3Br)c3ccccc23)cc1 inactive

// query: CC(=C(c1ccc(OCCN2CCCCC2)cc1)c1ccc(OCCN2CCCCC2)cc1)c1ccccc1 inactive
